Origin of measurements: patent US9540343B2

Record form. Attribute: CC50 at 5 days. Fill in for each entry.
protocol.notes: in vitro
condition.context: human, uninfected MT-4 cells, CC50 (nM), same protocol as Test A, CellTiter-Glo
Report the value in nM with no unit label.

Report CC50 at 5 days for O=C1Cc2c(cccc2-c2cccnc2[C@H](Cc2cc(F)cc(F)c2)NC(=O)Cn2nc(C(F)F)c3c2C(F)(F)CCC3(F)F)N1 [Example 489D] please. 20800

Consider next the molecule `Cc1cc(-c2cccnc2[C@H](Cc2cc(F)cc(F)c2)NC(=O)Cn2nc(C(F)(F)F)c3c2CCCC3)cnc1F` in the same way. 10700

Consider next the molecule CNc1ccc(-c2cccnc2[C@H](Cc2cc(F)cc(F)c2)NC(=O)Cn2nc(C(F)F)c3c2C(F)(F)CCC3(F)F)cn1 [Example 287E] in the same way. 16000

Consider next the molecule NC(=O)c1cc(-c2cccnc2[C@H](Cc2cc(F)cc(F)c2)NC(=O)Cn2nc(C(F)F)c3c2C(F)(F)CCC3O)ccc1F (stereo partly drawn) in the same way. 26500

Consider next the molecule `NC(=O)c1cc(-c2cccnc2[C@H](Cc2cc(F)cc(F)c2)NC(=O)Cn2nc(C(F)F)c3c2C2CC(C3)C2)ccc1F` in the same way. 21600
